Test system: OPM-2 cell line
protocol summary: CTG viability, 11x11 concentration matrix, Loewe synergy (multiple myeloma)
conditions: inhibitor combined with compound 1-1, 11x11 matrix, 72 hours
result type: Mean Loewe synergy score, OPM-2
Respond with the number and no other words.

Entry Cc1nc(NC(=O)N2CCC[C@H]2C(N)=O)sc1-c1ccnc(C(C)(C)C(F)(F)F)c1 , system OPM-2 cell line: what Mean Loewe synergy score, OPM-2 was measured?
−2.51

# get_value(readout= Mean Loewe synergy score, OPM-2, system= OPM-2 cell line) for CO[C@H]1C[C@@H]2CC[C@@H](C)[C@@](O)(O2)C(=O)C(=O)N2CCCC[C@H]2C(=O)O[C@H]([C@H](C)C[C@@H]2CC[C@@H](OCCO)[C@H](OC)C2)CC(=O)[C@H](C)/C=C(\C)[C@@H](O)[C@@H](OC)C(=O)[C@H](C)C[C@H](C)/C=C/C=C/C=C/1C
5.3

What value of Mean Loewe synergy score, OPM-2 on OPM-2 cell line does Nc1cc(C(F)(F)F)c(-c2cc(N3CCOCC3)nc(N3CCOCC3)n2)cn1 have?
−1.38

I'm curious: which Mean Loewe synergy score, OPM-2 was measured for NC1(C(=O)N[C@@H](CCO)c2ccc(Cl)cc2)CCN(c2ncnc3[nH]ccc23)CC1 tested on OPM-2 cell line?
−1

###

System: MDA-MB-231 cell line
protocol summary: CellTiter-Glo 2.0 cell viability, 7x7 combination dose response matrix, synergy scoring
Assay type: cell-based
conditions: MDA-MB-231; combined with M2698 41-10000 nM; first compound 0.41-100 nM
Could you please report measured Mean Loewe synergy score for the items listed next?
Reply: number alone, nothing else.

Need Mean Loewe synergy score, item O=C1CCC(N2Cc3ccc(COC(=O)Nc4cccc(OC(F)(F)F)c4)cc3C2=O)C(=O)N1 (stereo not shown)
3.68

Bench note: what Mean Loewe synergy score did O=C1CCC(N2Cc3ccc(COC(=O)Nc4ccc(F)c(OC(F)(F)F)c4)cc3C2=O)C(=O)N1 (stereo not shown) show?
3.82

I would be grateful if you could share the reported Mean Loewe synergy score for O=C1CCC(N2Cc3ccc(COC(=O)Nc4ccc(F)c(OC(F)F)c4)cc3C2=O)C(=O)N1 (stereo not shown) .
4.75

Sample Cc1cc(C)cc(NC(=O)OCc2ccc3c(c2)C(=O)N(C2CCC(=O)NC2=O)C3)c1 (stereo not shown) — what was its Mean Loewe synergy score?
2.36

###

Test system: MDA-MB-157 cell line
protocol summary: CellTiter-Glo 2.0 cell viability, 7x7 combination dose response matrix, synergy scoring
Assay type: cell-based
conditions: combined with M2698 41-10000 nM, first compound 0.41-100 nM
result type: Mean Loewe synergy score
A bare number is all that is needed in reply.

Look up Mean Loewe synergy score: O=C1CCC(N2Cc3ccc(COC(=O)Nc4ccc(F)c(OC(F)F)c4)cc3C2=O)C(=O)N1 (stereo not shown)
6.57

For O=C1CCC(N2Cc3ccc(COC(=O)Nc4ccc(F)c(OC(F)(F)F)c4)cc3C2=O)C(=O)N1 (stereo not shown) , what is its reported Mean Loewe synergy score?
5.68

Field request: Mean Loewe synergy score | item: O=C1CCC(N2Cc3ccc(COC(=O)Nc4cccc(OC(F)(F)F)c4)cc3C2=O)C(=O)N1 (stereo not shown)
4.08

Record request: Mean Loewe synergy score value, item Cc1cc(C)cc(NC(=O)OCc2ccc3c(c2)C(=O)N(C2CCC(=O)NC2=O)C3)c1 (stereo not shown)
5.54
